Molecular target: rat 5-HT7 receptor (Rattus norvegicus (Rat))
Sequence (P32305 1-435): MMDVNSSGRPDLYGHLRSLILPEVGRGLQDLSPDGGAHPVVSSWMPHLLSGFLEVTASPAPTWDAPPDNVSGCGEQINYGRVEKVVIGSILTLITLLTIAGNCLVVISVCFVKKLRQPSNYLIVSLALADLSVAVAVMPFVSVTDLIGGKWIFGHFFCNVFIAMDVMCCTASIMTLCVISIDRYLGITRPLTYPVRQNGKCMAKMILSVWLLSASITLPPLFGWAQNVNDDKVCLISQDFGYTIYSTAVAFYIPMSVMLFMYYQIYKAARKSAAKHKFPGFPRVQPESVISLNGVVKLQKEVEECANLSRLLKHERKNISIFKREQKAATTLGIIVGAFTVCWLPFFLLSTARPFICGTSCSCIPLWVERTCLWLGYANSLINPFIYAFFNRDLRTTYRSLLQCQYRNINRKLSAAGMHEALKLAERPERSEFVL
Test: r5-HT7 binding assay, competitive radioligand binding with [3H]5-CT
Settings: rat 5-HT7, HEK-293 membranes
measured attribute: Ki (nM)

CC(C)N1CC(Oc2ccc(Cl)cc2OC2CN(C(C)C)C2)C1 [Example 227]    336

P = Brc1ccc(Oc2cccc3ccccc23)c(OC2CNC2)c1 [Example 255]
Q = CC1(Oc2cc(Br)ccc2Oc2ccccc2)CNC1 [Example 218]
Request: Ki comparison. Which is larger, P or Q ? To answer, give the label that identifies your chosen option.
Response: P

###

Target: h5HT2A (Homo sapiens (Human))
Sequence (P28223 whole entry): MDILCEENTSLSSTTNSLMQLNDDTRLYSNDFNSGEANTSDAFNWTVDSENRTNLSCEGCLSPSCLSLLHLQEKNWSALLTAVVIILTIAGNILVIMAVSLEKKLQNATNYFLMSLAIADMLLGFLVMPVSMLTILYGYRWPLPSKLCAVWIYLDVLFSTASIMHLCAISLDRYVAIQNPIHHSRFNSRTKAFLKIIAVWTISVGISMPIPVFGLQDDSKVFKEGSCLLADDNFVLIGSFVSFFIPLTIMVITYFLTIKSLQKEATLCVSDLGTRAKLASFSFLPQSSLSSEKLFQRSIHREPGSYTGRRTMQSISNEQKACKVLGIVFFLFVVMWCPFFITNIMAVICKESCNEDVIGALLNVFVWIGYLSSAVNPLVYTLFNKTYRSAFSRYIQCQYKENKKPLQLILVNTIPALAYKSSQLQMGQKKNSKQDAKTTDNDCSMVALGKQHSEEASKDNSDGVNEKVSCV
Assay: h5HT2A binding
pKi: −log10 of the molar value.
measured attribute: pKi

Some solved cases for reference:
COc1cccc(CCOc2ccc(Cl)cc2OC2CNC2)c1 [Example 190]    7.85
Cc1ccc2c(c1)C(Oc1ccc(Cl)cc1OC1CNC1)CC2 (racemic) [Example 158]    8.10

A = Clc1ccc(C2(COc3ccc(Cl)cc3OC3CNC3)CCC2)cc1 [Example 188]
B = FC(F)(COc1ccc(Cl)cc1OC1CNC1)c1ccccc1 [Example 184]
C = Clc1ccc(O[C@@H]2CCNC2)c(OCc2ccccc2)c1 [Example 90]
Request: Sort low-to-high on pKi, please. Please list the labels according to the requested order.
Response: C, A, B
